target: Amyloid-beta precursor protein (Homo sapiens) (UniProt P05067); assay: Inhibition of Cu2+-induced amyloid beta (1 to 42) aggregation (unknown origin) at 50 uM after 24 hrs by thioflavin T fluorescence assay (reference value: 100%); parameters: scale not given: the % may be the effect or the level left
Sequence (P05067 whole entry): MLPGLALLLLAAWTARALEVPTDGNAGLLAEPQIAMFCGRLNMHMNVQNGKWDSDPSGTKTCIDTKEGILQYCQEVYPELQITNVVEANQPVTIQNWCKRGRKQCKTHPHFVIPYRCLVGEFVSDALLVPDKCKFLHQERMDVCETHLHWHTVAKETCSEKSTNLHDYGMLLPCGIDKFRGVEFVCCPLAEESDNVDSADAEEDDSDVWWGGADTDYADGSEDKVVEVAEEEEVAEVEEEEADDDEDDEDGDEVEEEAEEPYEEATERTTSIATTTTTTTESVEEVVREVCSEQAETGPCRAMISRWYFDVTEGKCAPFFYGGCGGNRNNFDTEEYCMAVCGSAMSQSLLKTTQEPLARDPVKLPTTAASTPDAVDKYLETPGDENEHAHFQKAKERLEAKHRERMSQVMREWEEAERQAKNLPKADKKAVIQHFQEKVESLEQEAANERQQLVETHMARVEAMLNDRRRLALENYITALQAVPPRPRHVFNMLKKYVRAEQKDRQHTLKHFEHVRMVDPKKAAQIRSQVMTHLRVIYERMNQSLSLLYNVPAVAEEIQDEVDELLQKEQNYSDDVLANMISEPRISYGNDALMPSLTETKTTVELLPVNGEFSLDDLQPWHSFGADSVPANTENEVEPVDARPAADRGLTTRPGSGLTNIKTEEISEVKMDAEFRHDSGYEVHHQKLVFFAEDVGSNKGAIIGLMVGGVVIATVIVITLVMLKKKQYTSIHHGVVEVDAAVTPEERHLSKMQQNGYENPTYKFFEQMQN
# Activity listing for each entry below
Property name: Activity (%)

| Compound | Property name | Units text | Result |
| --- | --- | --- | --- |
| CCN(CC)CCCC(C)Nc1ccnc2cc(Cl)ccc12 (centres undefined) | Activity | % | 68.2 |
| C#CCN(C)[C@H](C)Cc1ccc(NCc2ccccc2O)cc1 | Activity | % | 40.4 |
| C#CCN(C)[C@H](C)Cc1ccc(NCc2ncccc2OC)cc1 | Activity | % | 69.1 |
| C#CCN(C)[C@H](C)Cc1ccc(NCc2cc(O)ccc2O)cc1 | Activity | % | 63.1 |

###

species on record: Homo sapiens; test: Selectivity index, ratio of IC50 for human recombinant MAO-A to IC50 for human recombinant MAO-B
We label by threshold. Values of Ratio IC50 strictly beneath 3 are true (1). Values of 3 and up are false (0).

| Smiles notation | Class label |
| --- | --- |
| C#CCN(C)[C@H](C)Cc1ccc(NCc2cc(O)ccc2O)cc1 | true (1) |
| C#CCN(C)[C@H](C)Cc1ccc(NCc2cc(Cl)ccc2O)cc1 | true (1) |
| C#CCN(C)[C@H](C)Cc1ccc(NCc2ccccc2O)cc1 | false (0) |
| C#CCN(C)[C@H](C)Cc1ccc(NCc2cc(OC)ccc2O)cc1 | false (0) |
| C#CCN(C)[C@H](C)Cc1ccc(NCc2ncccc2C)cc1 | false (0) |

###

assay: physchem; details: PAMPA
Description: Permeability of the compound at 100 ug/mL after 10 hrs by PAMPA-BBB assay
# Papp at 10 h, 100 ug/mL listing for each entry below
Property name: Papp at 10 h, 100 ug/mL (×10⁻⁶ cm/s)

| Smiles notation | Units text | Result |
| --- | --- | --- |
| C#CCN(C)[C@H](C)Cc1ccc(NCc2ncccc2C)cc1 | ×10⁻⁶ cm/s | 12.1 |
| C#CCN(C)[C@H](C)Cc1ccc(NCc2cc(OC)ccc2O)cc1 | ×10⁻⁶ cm/s | 11.7 |
| C#CCN(C)[C@H](C)Cc1ccc(NCc2cc(N(C)C)ccc2O)cc1 | ×10⁻⁶ cm/s | 12.5 |
| C#CCN(C)[C@H](C)Cc1ccc(NCc2ccccc2O)cc1 | ×10⁻⁶ cm/s | 11.5 |
| C#CCN(C)[C@H](C)Cc1ccc(NCc2cc(O)ccc2O)cc1 | ×10⁻⁶ cm/s | 3.1 |

###

pIC50: −log10 of the molar value.
For reference, pIC50 measured on Amine oxidase [flavin-containing] B (Homo sapiens, UniProt P27338):

| Smiles notation | Modifier sign | pIC50 |
| --- | --- | --- |
| C#CCN(C)[C@H](C)Cc1ccc(NCc2cc(F)ccc2O)cc1 | < | 6.00 |
| C#CCN(C)[C@H](C)Cc1ccc(NCc2ncccc2OC)cc1 | = | 6.51 |
| C#CCN(C)[C@H](C)Cc1ccc(NCc2ncccc2C)cc1 | = | 6.28 |
| C#CCN(C)[C@H](C)Cc1ccc(NCc2cc(N(C)C)ccc2O)cc1 | < | 6.00 |
| C#CCN(C)[C@H](C)Cc1ccc(NCc2cc(O)ccc2O)cc1 | = | 6.37 |
| C#CCN(C)[C@H](C)Cc1ccc(NCc2ccccc2O)cc1 | = | 6.68 |
| C#CCN(C)[C@H](C)Cc1ccc(NCc2ccc(OC)cc2O)cc1 | < | 6.00 |
| C#CCN(C)[C@H](C)Cc1ccc(NCc2cc(OC)ccc2O)cc1 | = | 6.51 |
| C#CCN(C)[C@H](C)Cc1ccc(NCc2cc([N+](=O)[O-])ccc2O)cc1 | = | 6.02 |
| C#CCN(C)[C@H](C)Cc1ccc(NCc2cc(Cl)ccc2O)cc1 | = | 6.51 |
| C#CCN(C)[C@H](C)Cc1ccc(NCc2cccc(OC)c2O)cc1 | < | 6.00 |
